- Tested on: KRAS patient-derived spheroids with HUVEC/MSC, viability
- assay-procedure: Anticancer human tumor 941728-121-R-J1-PDC patient-derived lung adenocarcinoma cell line growth inhibition [KRAS2]
- assay-context: second compound 1 µM; first compound 3.16 µM; stronger effect = lower value
- From the text: Multicellular complex tumor spheroid response to RAS pathway inhibitors in combination with a targeted agents in patient-derived cell lines with oncogenic KRAS variants from multiple cancer types A high-throughput screen of multi-cell type tumor spheroids was designed to identify active combinations of targeted small molecules and KRAS pathway inhibitors. […] Compounds. […] If the clinical Cmax for an agent had not been determined, the highest concentration tested was 10 microM. […]
// boundary case: viability, T/C equal to 20% maps to N; strictly smaller maps to Y

Some solved cases for reference:
{"compound": "O=C(c1cc(Cc2n[nH]c(=O)c3ccccc23)ccc1F)N1CCN(C(=O)C2CC2)CC1 + C=CC(=O)N1CCN(c2nc(=O)n(-c3c(C)ccnc3C(C)C)c3nc(-c4c(O)cccc4F)c(F)cc23)C(C)C1", "qualitative-label": "N"}
{"compound": "COc1cc(Nc2ncc3c(n2)-c2ccc(Cl)cc2C(c2c(F)cccc2OC)=NC3)ccc1C(=O)O + C=CC(=O)N1CCN(c2nc(OCC3CCCN3C)nc3c2CCN(c2cccc4cccc(C)c24)C3)CC1CC#N", "qualitative-label": "N"}
{"compound": "CC(=O)OC12COC1CC(O)C1(C)C(=O)C(O)C3=C(C)C(OC(=O)C(O)C(NC(=O)OC(C)(C)C)c4ccccc4)CC(O)(C(OC(=O)c4ccccc4)C21)C3(C)C (stereo not given) + C=CC(=O)N1CCN(c2nc(OCC3CCCN3C)nc3c2CCN(c2cccc4cccc(C)c24)C3)CC1CC#N", "qualitative-label": "N"}
{"compound": "O=C(c1cc(Cc2n[nH]c(=O)c3ccccc23)ccc1F)N1CCN(C(=O)C2CC2)CC1 + CNCc1ccccc1-c1csc(C(C)Nc2nc(C)nc3cc(OC)c(OC)cc23)c1", "qualitative-label": "N"}
{"compound": "COc1cc2nccc(Oc3ccc(NC(=O)C4(C(=O)Nc5ccc(F)cc5)CC4)cc3)c2cc1OC + CNCc1ccccc1-c1csc(C(C)Nc2nc(C)nc3cc(OC)c(OC)cc23)c1", "qualitative-label": "Y"}

Data request: Say whether its viability, T/C is strictly beneath 20%. Entry: CC1(C)CCC(CN2CCN(c3ccc(C(=O)NS(=O)(=O)c4ccc(NCC5CCOCC5)c([N+](=O)[O-])c4)c(Oc4cnc5[nH]ccc5c4)c3)CC2)=C(c2ccc(Cl)cc2)C1 + CNCc1ccccc1-c1csc(C(C)Nc2nc(C)nc3cc(OC)c(OC)cc23)c1
Data returned: Y

Data request: Say whether its viability, T/C is strictly beneath 20%. Entry: CC(=O)OC12COC1CC(O)C1(C)C(=O)C(O)C3=C(C)C(OC(=O)C(O)C(NC(=O)OC(C)(C)C)c4ccccc4)CC(O)(C(OC(=O)c4ccccc4)C21)C3(C)C (stereo not given) + COc1cc2nc(C)nc(NC(C)c3cc(N)cc(C(F)(F)F)c3)c2cc1OC1CCOC1
Data returned: N

Data request: Say whether its viability, T/C is strictly beneath 20%. Entry: CCNC(=O)CC1N=C(c2ccc(Cl)cc2)c2cc(OC)ccc2-n2c(C)nnc21 (stereo not given) + CNCc1ccccc1-c1csc(C(C)Nc2nc(C)nc3cc(OC)c(OC)cc23)c1
Data returned: Y

Data request: Say whether its viability, T/C is strictly beneath 20%. Entry: CCNC(=O)CC1N=C(c2ccc(Cl)cc2)c2cc(OC)ccc2-n2c(C)nnc21 (stereo not given) + COc1cc2nc(C)nc(NC(C)c3cc(N)cc(C(F)(F)F)c3)c2cc1OC1CCOC1
Data returned: Y

Data request: Say whether its viability, T/C is strictly beneath 20%. Entry: Cn1nccc1Nc1nccc(-c2cc3c(s2)C(C)(C)N(CCN2CCOCC2)C3=O)n1 + C=CC(=O)N1CCN(c2nc(=O)n(-c3c(C)ccnc3C(C)C)c3nc(-c4c(O)cccc4F)c(F)cc23)C(C)C1
Data returned: Y

* * *

- Tested on: KRAS patient-derived spheroids with HUVEC/MSC, viability
- assay-procedure: Anticancer human tumor 941728-121-R-J1-PDC cell line growth inhibition [KRAS2];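 note: spheroids exposed to agents for seven days before readout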
- assay-context: curve of first compound; second compound 0.1 µM
readout-type: IC50

Take a look at these entries with their results.
{"molecule": "CC(C)NCC(C(=O)N1CCN(c2ncnc3c2C(C)CC3O)CC1)c1ccc(Cl)cc1 (stereo not given) + C=CC(=O)N1CCN(c2nc(=O)n(-c3c(C)ccnc3C(C)C)c3nc(-c4c(O)cccc4F)c(F)cc23)C(C)C1", "test-target": "KRAS patient-derived spheroids with HUVEC/MSC, viability", "IC50": "< 31.6 nM"}
{"molecule": "Cn1ncnc1[C@H]1c2n[nH]c(=O)c3cc(F)cc(c23)N[C@@H]1c1ccc(F)cc1 + COc1cc2nc(C)nc(NC(C)c3cc(N)cc(C(F)(F)F)c3)c2cc1OC1CCOC1", "test-target": "KRAS patient-derived spheroids with HUVEC/MSC, viability", "IC50": "> 100 nM"}
{"molecule": "CN(C)C/C=C/C(=O)Nc1cc2c(Nc3ccc(F)c(Cl)c3)ncnc2cc1O[C@H]1CCOC1 + C=CC(=O)N1CCN(c2nc(=O)n(-c3c(C)ccnc3C(C)C)c3nc(-c4c(O)cccc4F)c(F)cc23)C(C)C1", "test-target": "KRAS patient-derived spheroids with HUVEC/MSC, viability", "IC50": "< 0.316 nM"}
{"molecule": "CC(=O)Nc1cccc(-n2c(=O)n(C3CC3)c(=O)c3c(Nc4ccc(I)cc4F)n(C)c(=O)c(C)c32)c1 + CNCc1ccccc1-c1csc(C(C)Nc2nc(C)nc3cc(OC)c(OC)cc23)c1", "test-target": "KRAS patient-derived spheroids with HUVEC/MSC, viability", "IC50": "0.119 nM"}

Now for the molecule whose IC50 we want.
Data request: Given the entry Cn1nccc1Nc1nccc(-c2cc3c(s2)C(C)(C)N(CCN2CCOCC2)C3=O)n1 + C=CC(=O)N1CCN(c2nc(=O)n(-c3c(C)ccnc3C(C)C)c3nc(-c4c(O)cccc4F)c(F)cc23)C(C)C1 , report its measured IC50.
Data returned: < 31.6 nM

* * *

- Tested on: KRAS patient-derived spheroids with HUVEC/MSC, viability
- assay-procedure: Anticancer human tumor 941728-121-R-J1-PDC cell line growth inhibition [KRAS2];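 note: spheroids exposed to agents for seven days before readout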
- assay-context: second compound 1 µM; first compound 3.16 µM; stronger effect = lower value
Categorized via viability, T/C: bucket A: < 10%; bucket B: ≥ 10% and < 20%; bucket C: ≥ 20%

{"molecule": "Cn1nccc1Nc1nccc(-c2cc3c(s2)C(C)(C)N(CCN2CCOCC2)C3=O)n1 + CNCc1ccccc1-c1csc(C(C)Nc2nc(C)nc3cc(OC)c(OC)cc23)c1", "qualitative-label": "bucket B"}
{"molecule": "COC(=O)c1ccc2c(C(=Nc3ccc(N(C)C(=O)CN4CCN(C)CC4)cc3)c3ccccc3)c(O)[nH]c2c1 + CC1OCC2(CCN(c3cnc(Sc4ccnc(N)c4Cl)c(N)n3)CC2)C1N", "qualitative-label": "bucket B"}
{"molecule": "COc1cc2nccc(Oc3ccc(NC(=O)C4(C(=O)Nc5ccc(F)cc5)CC4)cc3)c2cc1OC + COc1cc2nc(C)nc(NC(C)c3cc(N)cc(C(F)(F)F)c3)c2cc1OC1CCOC1", "qualitative-label": "bucket B"}
{"molecule": "CC(C)NCC(C(=O)N1CCN(c2ncnc3c2C(C)CC3O)CC1)c1ccc(Cl)cc1 (stereo not drawn) + COc1cc2nc(C)nc(NC(C)c3cc(N)cc(C(F)(F)F)c3)c2cc1OC1CCOC1", "qualitative-label": "bucket B"}
{"molecule": "COc1cc(Nc2ncc3c(n2)-c2ccc(Cl)cc2C(c2c(F)cccc2OC)=NC3)ccc1C(=O)O + C=CC(=O)N1CCN(c2nc(=O)n(-c3c(C)ccnc3C(C)C)c3nc(-c4c(O)cccc4F)c(F)cc23)C(C)C1", "qualitative-label": "bucket C"}

Data request: Would you mind sorting Cn1nccc1Nc1nccc(-c2cc3c(s2)C(C)(C)N(CCN2CCOCC2)C3=O)n1 + C=CC(=O)N1CCN(c2nc(OCC3CCCN3C)nc3c2CCN(c2cccc4cccc(C)c24)C3)CC1CC#N into the appropriate category?
Data returned: bucket C

Data request: Would you mind sorting COC(=O)c1ccc2c(C(=Nc3ccc(N(C)C(=O)CN4CCN(C)CC4)cc3)c3ccccc3)c(O)[nH]c2c1 + C=CC(=O)N1CCN(c2nc(OCC3CCCN3C)nc3c2CCN(c2cccc4cccc(C)c24)C3)CC1CC#N into the appropriate category?
Data returned: bucket A

Data request: Would you mind sorting CC(=O)OC12COC1CC(O)C1(C)C(=O)C(O)C3=C(C)C(OC(=O)C(O)C(NC(=O)OC(C)(C)C)c4ccccc4)CC(O)(C(OC(=O)c4ccccc4)C21)C3(C)C (stereo not drawn) + CC1OCC2(CCN(c3cnc(Sc4ccnc(N)c4Cl)c(N)n3)CC2)C1N into the appropriate category?
Data returned: bucket C

Data request: Would you mind sorting CC(C)NCC(C(=O)N1CCN(c2ncnc3c2C(C)CC3O)CC1)c1ccc(Cl)cc1 (stereo not drawn) + C=CC(=O)N1CCN(c2nc(OCC3CCCN3C)nc3c2CCN(c2cccc4cccc(C)c24)C3)CC1CC#N into the appropriate category?
Data returned: bucket B

Data request: Would you mind sorting COc1cc2nccc(Oc3ccc(NC(=O)C4(C(=O)Nc5ccc(F)cc5)CC4)cc3)c2cc1OC + C=CC(=O)N1CCN(c2nc(OCC3CCCN3C)nc3c2CCN(c2cccc4cccc(C)c24)C3)CC1CC#N into the appropriate category?
Data returned: bucket A

Reference for the values: PubChem BioAssay AID1963862
